src = ChEMBL document CHEMBL1144990

subject.of.test: Adrenergic receptor alpha-1 (Rattus norvegicus) (UniProt P15823+P23944+P43140)
quantity.name: GTP shift

Recorded GTP shift, per entry:
- molecule: "CCOc1ccccc1OCCN1CCN(c2cnn(CCCCCCCN3CCN(c4ccccc4OC(C)C)CC3)c(=O)c2Cl)CC1"
  subject.of.test: "Adrenergic receptor alpha-1 (Rattus norvegicus) (UniProt P15823+P23944+P43140)"
  GTP shift: 0.8
- molecule: "CC(C)Oc1ccccc1N1CCN(CCCCCCCn2ncc(N3CCN(CC4COc5ccccc5O4)CC3)c(Cl)c2=O)CC1 (centres undefined)"
  subject.of.test: "Adrenergic receptor alpha-1 (Rattus norvegicus) (UniProt P15823+P23944+P43140)"
  GTP shift: 1.4
- molecule: "COc1cc2nc(N3CCN(C(=O)c4ccco4)CC3)nc(N)c2cc1OC"
  subject.of.test: "Adrenergic receptor alpha-1 (Rattus norvegicus) (UniProt P15823+P23944+P43140)"
  GTP shift: 1.2

# evaluate next
In: For the record CC(C)Oc1ccccc1N1CCN(CCCCCCCn2ncc(N3CCN(C(=O)c4ccco4)CC3)c(Cl)c2=O)CC1 , what value of GTP shift is listed for Adrenergic receptor alpha-1 (Rattus norvegicus) (UniProt P15823+P23944+P43140)?
Out: 1.7

====

subject.of.test: 5-hydroxytryptamine receptor 1A (Rattus norvegicus, UniProt P19327)
Sequence (P19327 whole entry): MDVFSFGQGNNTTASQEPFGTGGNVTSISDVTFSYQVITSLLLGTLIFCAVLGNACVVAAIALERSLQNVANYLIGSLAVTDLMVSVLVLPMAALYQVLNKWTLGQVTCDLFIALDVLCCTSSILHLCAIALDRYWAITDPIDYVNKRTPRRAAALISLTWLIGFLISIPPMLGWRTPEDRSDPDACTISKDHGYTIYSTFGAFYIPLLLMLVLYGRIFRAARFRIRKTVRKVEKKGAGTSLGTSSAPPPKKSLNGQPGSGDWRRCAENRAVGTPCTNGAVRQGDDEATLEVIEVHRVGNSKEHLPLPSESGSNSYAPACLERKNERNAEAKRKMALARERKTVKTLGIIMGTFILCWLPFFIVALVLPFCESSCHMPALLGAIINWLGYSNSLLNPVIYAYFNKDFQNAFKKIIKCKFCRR
Ki strictly less than 2 nM = TRUE. Otherwise FALSE.

Reference set (4 entries):
- compound: "COc1ccccc1N1CCN(CCCCCCCn2ncc(N3CCN(CC4COc5ccccc5O4)CC3)c(Cl)c2=O)CC1 (stereo unspecified)"
  subject.of.test: "5-hydroxytryptamine receptor 1A (Rattus norvegicus, UniProt P19327)"
  assigned.label: "FALSE"
- compound: "CCOc1ccccc1OCCN1CCN(c2cnn(CCCCCCCN3CCN(c4ccccc4OC)CC3)c(=O)c2Cl)CC1"
  subject.of.test: "5-hydroxytryptamine receptor 1A (Rattus norvegicus, UniProt P19327)"
  assigned.label: "TRUE"
- compound: "CCOc1ccccc1N1CCN(CCCCCCCn2ncc(Cl)c(N3CCN(C(=O)c4ccco4)CC3)c2=O)CC1"
  subject.of.test: "5-hydroxytryptamine receptor 1A (Rattus norvegicus, UniProt P19327)"
  assigned.label: "TRUE"
- compound: "CC(C)Oc1ccccc1N1CCN(CCCCCCCn2ncc(N3CCN(CC4COc5ccccc5O4)CC3)c(Cl)c2=O)CC1 (stereo unspecified)"
  subject.of.test: "5-hydroxytryptamine receptor 1A (Rattus norvegicus, UniProt P19327)"
  assigned.label: "FALSE"

In: Does CC(C)Oc1ccccc1N1CCN(CCCCCCCn2ncc(Cl)c(N3CCN(C(=O)c4ccco4)CC3)c2=O)CC1 have Ki strictly under 2 nM?
Out: TRUE

In: Does CCOc1ccccc1OCCN1CCN(c2cnn(CCCCCCCN3CCN(c4ccccc4OC(C)C)CC3)c(=O)c2Cl)CC1 have Ki strictly under 2 nM?
Out: FALSE
